Target: DGKζ (Homo sapiens (Human))
Sequence (Q13574 whole entry): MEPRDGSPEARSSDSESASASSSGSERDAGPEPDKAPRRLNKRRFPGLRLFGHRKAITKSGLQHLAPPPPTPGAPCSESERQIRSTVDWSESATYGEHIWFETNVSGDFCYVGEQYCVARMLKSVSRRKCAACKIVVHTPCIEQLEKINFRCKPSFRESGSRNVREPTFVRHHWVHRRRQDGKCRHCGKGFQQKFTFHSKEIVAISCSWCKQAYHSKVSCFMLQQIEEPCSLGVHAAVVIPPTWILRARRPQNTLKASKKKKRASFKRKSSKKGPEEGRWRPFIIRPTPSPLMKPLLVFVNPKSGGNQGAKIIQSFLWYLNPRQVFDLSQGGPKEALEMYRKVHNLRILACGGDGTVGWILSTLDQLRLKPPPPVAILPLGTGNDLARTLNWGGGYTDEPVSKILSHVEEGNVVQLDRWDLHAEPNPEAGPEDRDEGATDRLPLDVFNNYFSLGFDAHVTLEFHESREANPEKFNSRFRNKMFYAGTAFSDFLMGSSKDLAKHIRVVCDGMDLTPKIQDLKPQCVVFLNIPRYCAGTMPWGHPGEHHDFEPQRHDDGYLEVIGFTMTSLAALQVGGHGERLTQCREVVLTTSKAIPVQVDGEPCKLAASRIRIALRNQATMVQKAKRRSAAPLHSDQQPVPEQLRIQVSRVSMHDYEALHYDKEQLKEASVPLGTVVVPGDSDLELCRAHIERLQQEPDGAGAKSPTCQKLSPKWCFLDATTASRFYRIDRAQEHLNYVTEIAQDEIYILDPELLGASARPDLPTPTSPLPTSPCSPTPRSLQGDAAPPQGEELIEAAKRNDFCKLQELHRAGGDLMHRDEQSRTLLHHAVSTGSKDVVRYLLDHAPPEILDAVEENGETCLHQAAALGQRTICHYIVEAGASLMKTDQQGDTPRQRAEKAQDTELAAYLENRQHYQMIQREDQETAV
Test: In vitro DGKζ inhibition assay (ADP-Glo)
Details: His-tagged human recombinant enzyme, 0.4 nM DGK, 30 μM ATP, 20 μM DLG, 90 minute incubation
pIC50: −log10 of the molar value.
Parameter: pIC50. Scope: all listed entries.

Record excerpt, results attached:
- COMPOUND: "Cc1nc2c(N3C[C@@H](C)N(C(c4ccc(Cl)c(F)c4)C4CC(F)(F)C4)C[C@@H]3C)nc3nncn3c2n1C[C@@H]1CCCO1 (single isomer, unassigned)"
  EXPERIMENTAL SYSTEM: "DGKζ (Homo sapiens (Human))"
  MEASURED ENDPOINT: "pIC50"
  VAL: "≥ 7.70"
- COMPOUND: "Cc1nc2c(N3C[C@@H](C)N([C@H](c4ccc(Cl)c(Cl)c4)C4CC(F)(F)C4)C[C@@H]3C)nc3nncn3c2n1C[C@@H]1CCCO1"
  EXPERIMENTAL SYSTEM: "DGKζ (Homo sapiens (Human))"
  MEASURED ENDPOINT: "pIC50"
  VAL: "≥ 7.70"
- COMPOUND: "Cc1nc2c(N3C[C@@H]([C@@H](C)O)N(C(c4ccc(F)cc4)c4ccc(F)cc4)C[C@@H]3C)nc3nncn3c2n1C[C@@H]1CCCO1"
  EXPERIMENTAL SYSTEM: "DGKζ (Homo sapiens (Human))"
  MEASURED ENDPOINT: "pIC50"
  VAL: "≥ 7.70"
- COMPOUND: "Cc1nc2c(N3C[C@@H](C)N(C(c4ccc(C(F)(F)F)c(F)c4)C4CC(F)(F)C4)C[C@@H]3C)nc3nncn3c2n1C[C@@H]1CCCO1 (single isomer, unassigned)"
  EXPERIMENTAL SYSTEM: "DGKζ (Homo sapiens (Human))"
  MEASURED ENDPOINT: "pIC50"
  VAL: "≥ 7.70"
- COMPOUND: "Cc1nc2c(N3C[C@@H](C)N([C@H](c4ccc(F)c(Cl)c4)C(C)C)C[C@@H]3C)nc3nncn3c2n1C[C@@H]1CCCO1"
  EXPERIMENTAL SYSTEM: "DGKζ (Homo sapiens (Human))"
  MEASURED ENDPOINT: "pIC50"
  VAL: "≥ 7.70"

System DGKζ (Homo sapiens (Human)). Read-out pIC50. Item Cc1nc2c(N3C[C@@H](C)N([C@@H](c4ccc(F)c(Cl)c4)C(C)C)C[C@@H]3C)nc3nncn3c2n1C[C@@H]1CCCO1 (single isomer, unassigned) . Report value. ≥ 7.70
